- PROTOCOL_SUMMARY: clinical
- EXPERIMENTAL_SETUP: male, human, in vivo, t1/2
READOUT_NAME: half-life (min)
Please state the figure in min; there is no need to write the unit.

Query CC1(C)S[C@@H]2[C@H](NC(=O)[C@H](N)c3ccc(O)cc3)C(=O)N2[C@H]1C(=O)O [Amoxicillin, amoxicillin] yields half-life of 70.8

* * *

- PROTOCOL_SUMMARY: Pharmacokinetic assessment of plasma concentrations (LC-MS/MS, non-compartmental analysis) after mono/dual and triple therapy
- EXPERIMENTAL_SETUP: male, human, plasma, oral, Cmax, dual therapy, period 1 of part 2; N = 15; arithmetic mean (SD)
READOUT_NAME: Cmax (ng/mL)
Please state the figure in ng/mL; there is no need to write the unit.

SMILES_STRING: CC1(C)S[C@@H]2[C@H](NC(=O)[C@H](N)c3ccc(O)cc3)C(=O)N2[C@H]1C(=O)O
UNIT_SYMBOL: ng/mL
Cmax: 9370

Attention now turns to another entry.
Query "CC[C@H]1OC(=O)[C@H](C)[C@@H](O[C@H]2C[C@@](C)(OC)[C@@H](O)[C@H](C)O2)[C@H](C)[C@@H](O[C@@H]2O[C@H](C)C[C@H](N(C)C)[C@H]2O)[C@](C)(OC)C[C@@H](C)C(=O)[C@H](C)[C@@H](O)[C@]1(C)O" yields Cmax of 1870

Reference source: paper PMC6096703
